# Species on record: Rattus norvegicus
# Assay comment: Open TG-GATES - Regimen: Single
# Format: toxicity, organism-based, Sprague-Dawley
# Parameters: regimen Single, gender Male, age 6 weeks
# Test parameters: in vivo, po, 0 mg/kg, 9 h, tissue Blood, route gavage, dose level Control
Experimental endpoint: MCV (fL)
Enter your answer as a number in fL; do not include the unit.

Retrieve MCV measured for `Nc1nc(N)c2nc(-c3ccccc3)c(N)nc2n1` and print it.
62.2

Using known records, supply MCV for Oc1ncnc2[nH]ncc12 [ALLOPURINOL]
64.8

Could you please provide reported MCV for CCN1CCCC1CNC(=O)c1cc(S(N)(=O)=O)ccc1OC (centres undefined) [SULPIRIDE] ? Thanks!
62

# return recorded MCV for input O=C(O)c1cccnc1 [NIACIN]
62.3

* * *

# Species: Rattus norvegicus
# Assay comment: Open TG-GATES - Regimen: Single
# Format: toxicity, organism-based, Sprague-Dawley
# Design: regimen Single, gender Male, age 6 weeks
# Test parameters: in vivo, po, 0 mg/kg, 9 h, tissue Plasma, route gavage, dose level Control
Task for the reader: assign each of the following compounds its reported GLC.
All answers are understood in mg/dL, so give the number only.

Read the entry `C[C@](N)(Cc1ccc(O)c(O)c1)C(=O)O` and write its reported GLC.
182.6

Please report the measured GLC for `CCSCC[C@H](N)C(=O)O`
203.4

Give the reported value of GLC for this record: `CCc1oc2ccccc2c1C(=O)c1cc(I)c(O)c(I)c1`
191.8

Please give the documented GLC of CC(C)C(=O)Nc1ccc([N+](=O)[O-])c(C(F)(F)F)c1 [FLUTAMIDE]
204.6

# return recorded GLC for input CC(=N)S [THIOACETAMIDE]
186.2

Using known records, supply GLC for `CC(C)(S)[C@@H](N)C(=O)O`
187.4

Please give measured GLC of the following entry: `Oc1ncnc2[nH]ncc12`
197.8

Please look at this compound and report its GLC: CCN1CCCC1CNC(=O)c1cc(S(N)(=O)=O)ccc1OC (stereo not drawn) [SULPIRIDE]
170.8

* * *

# Species on record: Rattus norvegicus
# Assay comment: Open TG-GATES - Regimen: Daily Repeat
# Format: toxicity, organism-based, Sprague-Dawley
# Design: regimen Daily Repeat, gender Male, age 6 weeks
# Test parameters: in vivo, po, 0 mg/kg, […], tissue Blood, route gavage, dose level Control, time 14 day
Experimental endpoint: APTT
Write down the value, and be sure its unit follows.

Name the recorded APTT of the compound listed here: CC(=N)S [THIOACETAMIDE]
17.4 s

Consider the compound CC(C)(S)[C@@H](N)C(=O)O [PENICILLAMINE] . State its measured APTT.
19.2 s

# return recorded APTT for entry CN1C(=O)OC(C)(C)C1=O [TRIMETHADIONE]
19.5 s

Given C[C@]12CCC(=O)C=C1CC[C@@H]1[C@@H]2CC[C@@]2(C)[C@H]1CC[C@]2(C)O [METHYLTESTOSTERONE] , respond with its APTT.
15.9 s

* * *

# Organism: Rattus norvegicus
# Assay comment: Open TG-GATES - Regimen: Single
# Type: toxicity, organism-based, Sprague-Dawley
# Parameters: regimen Single, gender Male, age 6 weeks
# Test parameters: in vivo, po, 0 mg/kg, 3 h, tissue Plasma, route gavage, dose level Control
For each entry below, report its gamma-GTP value.
Provide the reading as a plain figure in IU/L.

Return reported gamma-GTP. Input molecule: O=C(O)c1cccnc1 [NIACIN]
1.4

Return the recorded gamma-GTP value; entry: `Nc1nc(N)c2nc(-c3ccccc3)c(N)nc2n1`
1

Read off the recorded gamma-GTP for CC(=O)Oc1cc(C(C)C)c(OCCN(C)C)cc1C [MOXISYLYTE]
1

Please report gamma-GTP for the following molecule: O=C(N[C@H](CO)[C@H](O)c1ccc([N+](=O)[O-])cc1)C(Cl)Cl [CHLORAMPHENICOL]
1.2

In one line, give reported gamma-GTP of the entry CCc1oc2ccccc2c1C(=O)c1cc(I)c(O)c(I)c1 [BENZIODARONE] .
1.4

Complete the entry with gamma-GTP for CCN1CCCC1CNC(=O)c1cc(S(N)(=O)=O)ccc1OC (centres undefined) [SULPIRIDE]
1.6

Specify measured gamma-GTP for C[C@]12CCC(=O)C=C1CC[C@@H]1[C@@H]2CC[C@@]2(C)[C@H]1CC[C@]2(C)O [METHYLTESTOSTERONE] .
1.6

Entry CC(C)C(=O)Nc1ccc([N+](=O)[O-])c(C(F)(F)F)c1 [FLUTAMIDE] needs its gamma-GTP filled in; supply it.
1.4

Give gamma-GTP for the following molecule: CN1C(=O)OC(C)(C)C1=O [TRIMETHADIONE]
1.2

Source: ChEMBL document CHEMBL3885861
